Hey, just so you know, these numbers are from paper PMC10668980.

The compounds listed here are annotated with their ΔAmax.
molecular target: C. krusei CYP51 (C.krCYP51) (Pichia kudriavzevii, UniProt A9YUC7, K136R); details: steroid derivatives; absorbance change at ligand saturation
Sequence (A9YUC7 2-528 K136R): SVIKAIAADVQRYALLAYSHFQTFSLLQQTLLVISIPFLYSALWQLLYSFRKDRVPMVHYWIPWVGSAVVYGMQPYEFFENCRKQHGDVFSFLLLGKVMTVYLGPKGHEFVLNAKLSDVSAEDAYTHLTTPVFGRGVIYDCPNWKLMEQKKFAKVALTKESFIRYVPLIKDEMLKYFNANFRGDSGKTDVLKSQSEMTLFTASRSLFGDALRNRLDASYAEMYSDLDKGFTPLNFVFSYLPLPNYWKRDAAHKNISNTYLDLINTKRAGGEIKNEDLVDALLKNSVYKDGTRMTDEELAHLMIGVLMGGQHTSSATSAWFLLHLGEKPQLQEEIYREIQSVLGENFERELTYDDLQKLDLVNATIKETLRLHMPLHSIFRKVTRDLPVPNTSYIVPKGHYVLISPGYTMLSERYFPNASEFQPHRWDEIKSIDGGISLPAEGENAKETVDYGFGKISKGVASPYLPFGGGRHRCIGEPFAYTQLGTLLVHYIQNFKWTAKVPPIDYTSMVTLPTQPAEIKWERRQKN
// response body must contain only the number

Consider the worked cases shown below.
In plain terms, CC(=O)O[C@@]12C=C[C@]3(C[C@H]1[N+](=O)[O-])C1CCc4cc(O)ccc4C1CC[C@@]32C (stereo partly shown) [73c] has a documented ΔAmax of 0.0069

In plain terms, CC(C)C(C=C[C@](C)(O)[C@H]1CC[C@H]2[C@@H]3CC=C4C[C@@H](O)CC[C@]4(C)[C@H]3CC[C@@]21C)=NO has a documented ΔAmax of 0.0047

In plain terms, CC(C)=CCC[C@@H](C)[C@H]1CC[C@@]2(C)C3=C(CC[C@]12C)[C@@]1(C)CC[C@H](O)C(C)(C)[C@@H]1CC3 has a documented ΔAmax of 0.031

Please examine the following record next.
In plain terms, COC1C(OC2CCC3(C)C(C(O)CC4(O)C3CCC3(C)C(C(C)CCC(OC5OC(CO)C(O)C5O)C(C)C)CC(O)C34)C2O)OCC(O)C1O (stereo not shown) [Ch-4, granulatoside A] has a documented ΔAmax of 0.0099

---

target: C. krusei CYP51 (C.krCYP51) (Pichia kudriavzevii, UniProt A9YUC7, K136R); test: biochemical
property: log10(Kd) (log10 of the value in nM)
# values: log10(Kd), units nM

Consider the worked cases shown below.
In plain terms, C[C@@H](c1ncncc1F)[C@](O)(Cn1cncn1)c1ccc(F)cc1F has a documented log10(Kd) of 1.00

In plain terms, COC1C(OC2CCC3(C)C(C(O)CC4(O)C3CCC3(C)C(C(C)CCC(OC5OC(CO)C(O)C5O)C(C)C)CC(O)C34)C2O)OCC(O)C1O (stereo not drawn) [Ch-4, granulatoside A] has a documented log10(Kd) of 3.84

In plain terms, c1ccc(-c2ccc(C(c3ccccc3)n3ccnc3)cc2)cc1 (stereo not drawn) has a documented log10(Kd) of 0.48

In plain terms, CC(C)=CCC[C@@H](C)[C@H]1CC[C@@]2(C)C3=C(CC[C@]12C)[C@@]1(C)CC[C@H](O)C(C)(C)[C@@H]1CC3 has a documented log10(Kd) of 3.45

In plain terms, CC(C)C(C=C[C@](C)(O)[C@H]1CC[C@H]2[C@@H]3CC=C4C[C@@H](O)CC[C@]4(C)[C@H]3CC[C@@]21C)=NO has a documented log10(Kd) of 3.01

Others:
In plain terms, CC(=O)O[C@@]12C=C[C@]3(C[C@H]1[N+](=O)[O-])C1CCc4cc(O)ccc4C1CC[C@@]32C (stereo partly drawn) [73c] has a documented log10(Kd) of 4.03
